B1: LINE1-full (parent)
chain: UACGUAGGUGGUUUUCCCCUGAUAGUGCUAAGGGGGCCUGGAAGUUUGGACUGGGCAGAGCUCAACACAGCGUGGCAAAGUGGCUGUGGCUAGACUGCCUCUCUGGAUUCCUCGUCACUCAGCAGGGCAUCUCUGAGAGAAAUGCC

- Variants of: B1
- ASSAY COMMENT: self-cleavage, relative activity (ratio to wild type); higher = more cleavage; in vitro, sequencing; the parent is a self-cleaving ribozyme
Exercise: state measured self-cleavage for each of the variants provided.
The reply should be a number, written without any unit.

G70A U132G has a reported self-cleavage of 0.19

U47C U100A has a reported self-cleavage of 1.51

U45A A50G has a reported self-cleavage of 0.95

U15A A50G has a reported self-cleavage of 0.67

U47C U85G has a reported self-cleavage of 0.32

G36A U112C has a reported self-cleavage of 1.29

U13C A65G has a reported self-cleavage of 0.12

A50C C103U has a reported self-cleavage of 1.37

A43U A142G has a reported self-cleavage of 1.24

G44A A117G has a reported self-cleavage of 1.21

U14A U87C has a reported self-cleavage of 0.12

C61U U119C has a reported self-cleavage of 0.05

A42U C113A has a reported self-cleavage of 0.98

U102A A124U has a reported self-cleavage of 1.46

A79G U115C has a reported self-cleavage of 1.32

U45G C120U has a reported self-cleavage of 1.49

A22U A64G has a reported self-cleavage of 0.3

G21C U109C has a reported self-cleavage of 1.18

C116A A124G has a reported self-cleavage of 1.25

U9A U96A has a reported self-cleavage of 0.08

C98U A121U has a reported self-cleavage of 0.38

U20C G114A has a reported self-cleavage of 1.57

Provenance of the data: the RNAGym collection of RNA variant scans (doi:10.7554/elife.90254)
